Measurement Target: mouse TGR5 receptor (Mus musculus, UniProt Q80SS6)
Construct: host or cells: HEK293-EBNA (293 c18, ATCC CRL10852)
Sequence (Q80SS6 1-329): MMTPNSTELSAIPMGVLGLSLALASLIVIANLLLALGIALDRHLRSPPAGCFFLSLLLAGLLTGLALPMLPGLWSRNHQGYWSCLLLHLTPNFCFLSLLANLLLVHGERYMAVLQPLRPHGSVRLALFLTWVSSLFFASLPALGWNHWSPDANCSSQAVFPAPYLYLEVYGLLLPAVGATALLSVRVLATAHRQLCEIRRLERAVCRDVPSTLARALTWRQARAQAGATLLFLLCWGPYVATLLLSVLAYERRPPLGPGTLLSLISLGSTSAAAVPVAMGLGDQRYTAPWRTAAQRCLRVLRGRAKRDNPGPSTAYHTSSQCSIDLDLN
Assay Remarks: Mouse TGR5 luminescent cAMP production assay (HEK293-EBNA cells, DiscoveRx cAMP XS+ kit)
Format: cell-based
Settings: HEK293-EBNA cells overexpressing mouse TGR5, luminescent cAMP assay; read-out: Mouse TGR5 Lum. cAMP Activity (EC50)
Test Readout: EC50

Below are worked cases with known answers.
N#Cc1ccc(CCNC(=O)[C@@H]2CCCN2c2cc(-c3ccc(OC(F)(F)F)cc3)nc(C(F)(F)F)n2)cc1 [Compound 150]
0.1 to 0.999 µM
CN(C)CC1CCN(c2cc(N3CCC[C@H]3C(=O)NCCc3ccc(C#N)cc3)nc(C(F)(F)F)n2)CC1 [Compound 19]
< 0.1 µM
N#Cc1ccc(CCNC(=O)[C@@H]2CCN2c2cc(-c3ccc(CO)cc3)nc(C(F)(F)F)n2)cc1 [Compound 304]
0.1 to 0.999 µM
O=C(NCCc1ccc(C(F)(F)F)cc1)[C@@H]1CCCN1c1cc(NCc2ccncc2)nc(C(F)(F)F)n1 [Compound 3]
0.1 to 0.999 µM
N#Cc1ccc(CCNC(=O)[C@@H]2CCCN2c2cc(-c3ccc(S(=O)(=O)N4CCOCC4)cc3)nc(C(F)(F)F)n2)cc1 [Compound 154]
0.1 to 0.999 µM
N#Cc1ccc(CCNC(=O)[C@@H]2CCCN2c2cc(-c3ccc(CO)cc3)nc(C(F)(F)F)n2)cc1 [Compound 146]
< 0.1 µM

Consider the record given below.
q: Fill blank: measured EC50 of the molecule N#Cc1ccc(CCNC(=O)C2CCN2c2cc(OC3CCOCC3)nc(C(F)(F)F)n2)cc1 (stereo not shown) [Compound 244] is ____.
a: < 0.1 µM

This collection of values is drawn from patent US10654834B2.
